Tested on: L929 cell line
assay_notes: Cytotoxicity MTS assay, L929 cell line
Type: cell-based
reported_conditions: L929 cell line, 100μM, second assay

compound	study_target	OD490 values, Well 3
COC(=O)c1[nH]c(C2NC(=S)NC(C)=C2C(=O)c2ccccc2)c(C(=O)OC)c1C (stereo not shown)	L929 cell line	1.1022
CCOC(=O)C1=C(C)NC(=S)NC1c1cccc(O)c1 (stereo not shown) [Monastrol, monastrol, reference compound]	L929 cell line	1.2265
CCOC(=O)c1[nH]c(C2NC(=S)NC(C)=C2C(=O)OC)c(C(=O)OCC)c1C (stereo not shown)	L929 cell line	1.1122
CCOC(=O)c1c(C2NC(=O)NC(C)=C2C(=O)Nc2ccccc2OC)[nH]c(C(=O)OC)c1C (stereo not shown) [D1]	L929 cell line	1.3874
CCOC(=O)c1[nH]c(C2NC(=O)NC(C)=C2C(=O)Nc2ccc(Cl)cc2)c(C(=O)OCC)c1C (stereo not shown)	L929 cell line	0.8988
CCOc1ccccc1C1NC(=S)NC(C)=C1C(=O)Nc1ccc(Cl)cc1 (stereo not shown)	L929 cell line	0.8062
CCOC(=O)c1[nH]c(C2NC(=O)NC(C)=C2C(=O)Nc2ccccc2C)c(C(=O)OC)c1C (stereo not shown)	L929 cell line	0.8469
